These entries and their values trace back to PubChem BioAssay AID2060604.

Measured viability, T/C by item
- Tested on: 379773-124-R-J2-PDC complex spheroids, viability % test/control;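 note: compound exposure lasted seven days before the viability readout; 100% = DMSO vehicle control wells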
- assay.name: Anticancer human tumor 379773-124-R-J2-PDC patient-derived endometrial carcinoma cell line growth inhibition [CLK]
- test.conditions: second compound 0.0316 µM; first compound 3.16 µM; active compounds read low
Express your answer in %, writing the number without its unit.

Worked examples, 2 compounds total:
Nc1ccccc1NC(=O)c1ccc(CNC(=O)OCc2cccnc2)cc1 + CN1CCN(c2cc(C(=O)Nc3cc4cc(-c5cnn(C)c5)ccc4cn3)ccn2)CC1 :: 49.1
C=CC(=O)N1CCN(c2nc(=O)n(-c3c(C)ccnc3C(C)C)c3nc(-c4c(O)cccc4F)c(F)cc23)C(C)C1 (stereo not drawn) + CN1CCN(c2cc(C(=O)Nc3cc4cc(-c5cnn(C)c5)ccc4cn3)ccn2)CC1 :: 84.6

# ---- query compound ----
// viability, T/C lookup, compound = CCCS(=O)(=O)Nc1ccc(F)c(C(=O)c2c[nH]c3ncc(-c4ccc(Cl)cc4)cc23)c1F + CN1CCN(c2cc(C(=O)Nc3cc4cc(-c5cnn(C)c5)ccc4cn3)ccn2)CC1 , result: 82.4
